Molecular target: T1, human EphA5 (Homo sapiens, UniProt P54756)
T1 construct: a protein of the extracellular region of each human Eph receptor fused with the SEAP protein and the His tag; made in house; host or cells: Expi293F cells (culture supernatant)
T1 sequence (P54756 25-573 limits assumed): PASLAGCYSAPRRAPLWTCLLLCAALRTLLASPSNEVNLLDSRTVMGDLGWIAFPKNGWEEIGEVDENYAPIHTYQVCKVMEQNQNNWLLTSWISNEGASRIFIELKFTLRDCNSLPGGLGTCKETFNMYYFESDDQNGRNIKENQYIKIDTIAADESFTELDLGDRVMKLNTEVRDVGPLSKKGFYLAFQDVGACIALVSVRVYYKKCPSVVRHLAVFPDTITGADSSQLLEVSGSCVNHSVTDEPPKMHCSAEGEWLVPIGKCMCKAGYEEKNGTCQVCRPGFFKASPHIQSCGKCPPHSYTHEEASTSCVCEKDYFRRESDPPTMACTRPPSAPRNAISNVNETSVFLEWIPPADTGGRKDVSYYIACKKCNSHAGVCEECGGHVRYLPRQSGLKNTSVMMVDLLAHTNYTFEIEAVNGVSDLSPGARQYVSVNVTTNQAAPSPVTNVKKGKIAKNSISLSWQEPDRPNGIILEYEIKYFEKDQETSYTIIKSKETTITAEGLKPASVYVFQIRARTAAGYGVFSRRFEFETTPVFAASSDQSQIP
Test: Selectivity ELISA of humanized antibodies for human Eph receptor
Assay type: binding
Conditions: coated protein 1 nM
From the text: According to the method described in Example 7, a DNA sequence encoding the signal sequence and the extracellular region of each human Eph receptor (EphA1, EphA2, EphA3, EphA4, EphA5, EphA6, EphA7, EphA8, EphA10, EphB1, EphB2, EphB3, EphB4, and EphB6) was amplified by RT-PCR using tissue-derived total RNA and cloned into a pENTR1A vector (Invitrogen/Life Technologies) having a DNA sequence encoding SEAP protein and histidine tag. […]
The entries below are paired with their reported hEphA5-SEAP-: absorbance at 450 nm, percentage with respect to hEphA4-SEAP-His as 100%.
outcome measure: hEphA5-SEAP-: absorbance at 450 nm, percentage with respect to hEphA4-SEAP-His as 100% (%)

molecule="144 (antibody, V domains shown, synthetic humanized antibody heavy chain variable region sequence; synthetic humanized antibody light chain variable region sequence) VH: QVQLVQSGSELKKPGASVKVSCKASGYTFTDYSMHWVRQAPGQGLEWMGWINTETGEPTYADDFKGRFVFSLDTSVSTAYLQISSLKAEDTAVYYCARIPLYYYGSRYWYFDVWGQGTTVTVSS VL: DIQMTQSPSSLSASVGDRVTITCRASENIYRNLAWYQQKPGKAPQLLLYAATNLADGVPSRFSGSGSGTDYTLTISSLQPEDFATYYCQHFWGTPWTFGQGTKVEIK" unit_name=% endpoint_result=5.6
molecule="73 (antibody, V domains shown, synthetic humanized antibody heavy chain variable region sequence; synthetic humanized antibody light chain variable region sequence) VH: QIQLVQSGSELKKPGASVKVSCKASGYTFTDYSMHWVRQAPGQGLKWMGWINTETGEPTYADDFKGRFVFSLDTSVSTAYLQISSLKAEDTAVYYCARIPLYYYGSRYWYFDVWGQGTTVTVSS VL: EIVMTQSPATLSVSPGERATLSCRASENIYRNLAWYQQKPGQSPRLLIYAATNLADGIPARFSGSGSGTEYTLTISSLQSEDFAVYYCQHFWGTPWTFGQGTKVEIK" unit_name=% endpoint_result=6.0
